These measurements were taken from patent US20160185837A1.

Assayed system: T1, mouse GIP receptor (mouse) (UniProt Q0P543)
T1 sequence (looked up): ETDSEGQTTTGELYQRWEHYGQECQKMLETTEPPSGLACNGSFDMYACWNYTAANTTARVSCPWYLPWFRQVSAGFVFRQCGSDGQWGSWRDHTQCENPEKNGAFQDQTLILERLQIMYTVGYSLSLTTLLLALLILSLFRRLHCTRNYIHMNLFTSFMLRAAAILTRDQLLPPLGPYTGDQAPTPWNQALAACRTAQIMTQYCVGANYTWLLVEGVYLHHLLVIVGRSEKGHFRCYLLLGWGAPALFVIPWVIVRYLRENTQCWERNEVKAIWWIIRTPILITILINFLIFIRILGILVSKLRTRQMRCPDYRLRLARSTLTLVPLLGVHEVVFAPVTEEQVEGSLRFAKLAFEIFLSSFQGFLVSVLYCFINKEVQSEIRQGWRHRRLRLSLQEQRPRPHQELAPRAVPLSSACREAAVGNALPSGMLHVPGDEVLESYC
Experiment notes: cell-based or functional assay
Experimental endpoint: cAMP EC50

>>> measured_result("IP386 (Fc fusion) YSEGTFISDYSIAMDKIHQQDFVNWLLAQKGGGGGSGGGGSGGGGSGGGGSACPPC")
"0.03 nM"
>>> measured_result("IP394 (Fc fusion) YSEGMHTSDLSKLLERQAIDEFIAWLLKGGAAAGGSGSTASSGSGSATGGGGAATHTCPPC")
"10 nM"
>>> measured_result("IP369 (Fc fusion) YSEGTFTSDYSKLLERQAIDEFIAHLLKGGGGGGGSGGGGSGGGGSGGGGSGGGGSGGGGSA")
"0.68 nM"
>>> measured_result("IP336 (Fc fusion) YSEGTFISDYSIAMDKIHQQDFVNWLLAQKGGGGGSGGGGSGGGGSGGGGSGGGGSGGGGSA")
"0.012 nM"
>>> measured_result("IP389 (Fc fusion) YSEGTFISDYSIAMDKIHQQDFVNWLLAQKGGGGGSGGGGSGGGGSGGGGSGGGGSGGGGSGGGGSACPPC")
"0.017 nM"
